The origin of these recorded values is patent US20180022794A1.

Biological target: T1, RhoA Q63L (UniProt P61586 1-190, limits assumed)
T1 construct: also called RhoA Q63L (2SHA); constitutively active RhoA mutant
T1 sequence (P61586 1-190 Q63L limits assumed): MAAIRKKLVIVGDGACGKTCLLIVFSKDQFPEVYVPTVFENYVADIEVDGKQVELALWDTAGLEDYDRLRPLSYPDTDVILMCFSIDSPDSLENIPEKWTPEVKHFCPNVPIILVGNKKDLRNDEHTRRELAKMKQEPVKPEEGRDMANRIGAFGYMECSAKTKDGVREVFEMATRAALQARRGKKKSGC
Assay: binding kinetics, method not stated (Table 1)
Property name: kon (M⁻¹ s⁻¹)

{"Binder": "5SNP48 hs2dAb (VHH) VHH: VQLQASGGGFVQPGGSLRLSCAASGTSWFTEVMGWFRQAPGKEREFVSAISGLHDVGTYYADSVKGRFTISRDNSKNTVYLQMNSLRAEDTATYYCAALDKWYTKAMDARKDYWGQGTQVTVSS", "kon (M⁻¹ s⁻¹)": 814000}
{"Binder": "5SNP65 hs2dAb (VHH) VHH: VQLQASGGGFVQPGGSLRLSCAASGATYEGEAMGWFRQAPGKEREFVSAISSYPSVISYYADSVKGRFTISRDNSKNTVYLQMNSLRAEDTATYYCAYWVNHEGTIREIYWGQGTQVTVSS", "kon (M⁻¹ s⁻¹)": 870000}
{"Binder": "B6 hs2dAb (VHH, also called hs2dAb B6) VHH: VQLQASGGGFVQPGGSLRLSCAASGYGSTIETMGWFRQAPGKEREFVSAISRAPGPSQYYADSVKGRFTISRDNSKNTVYLQMNSLRAEDTATYYCAPINNRTMQDSMFLWNYWGQGTQVTVSS", "kon (M⁻¹ s⁻¹)": "1.05e+06"}
{"Binder": "4SNP61 hs2dAb (VHH) VHH: VQLQASGGGFVQPGGSLRLSCAASGFTSTSTVMGWFRQAPGKEREFVSAISSAHTMDTYYADSVKGRFTISRDNSKNTVYLQMNSLRAEDTATYYCAPAPMLGQMITQPALPYWGQGTQVTVSS", "kon (M⁻¹ s⁻¹)": "1.1e+06"}
